Recorded values, source PubChem BioAssay.

- MEASURED ON: Short transient receptor potential channel 4 (Mus musculus) (UniProt Q9QUQ5)
- Sequence (Q9QUQ5 whole entry, looked up): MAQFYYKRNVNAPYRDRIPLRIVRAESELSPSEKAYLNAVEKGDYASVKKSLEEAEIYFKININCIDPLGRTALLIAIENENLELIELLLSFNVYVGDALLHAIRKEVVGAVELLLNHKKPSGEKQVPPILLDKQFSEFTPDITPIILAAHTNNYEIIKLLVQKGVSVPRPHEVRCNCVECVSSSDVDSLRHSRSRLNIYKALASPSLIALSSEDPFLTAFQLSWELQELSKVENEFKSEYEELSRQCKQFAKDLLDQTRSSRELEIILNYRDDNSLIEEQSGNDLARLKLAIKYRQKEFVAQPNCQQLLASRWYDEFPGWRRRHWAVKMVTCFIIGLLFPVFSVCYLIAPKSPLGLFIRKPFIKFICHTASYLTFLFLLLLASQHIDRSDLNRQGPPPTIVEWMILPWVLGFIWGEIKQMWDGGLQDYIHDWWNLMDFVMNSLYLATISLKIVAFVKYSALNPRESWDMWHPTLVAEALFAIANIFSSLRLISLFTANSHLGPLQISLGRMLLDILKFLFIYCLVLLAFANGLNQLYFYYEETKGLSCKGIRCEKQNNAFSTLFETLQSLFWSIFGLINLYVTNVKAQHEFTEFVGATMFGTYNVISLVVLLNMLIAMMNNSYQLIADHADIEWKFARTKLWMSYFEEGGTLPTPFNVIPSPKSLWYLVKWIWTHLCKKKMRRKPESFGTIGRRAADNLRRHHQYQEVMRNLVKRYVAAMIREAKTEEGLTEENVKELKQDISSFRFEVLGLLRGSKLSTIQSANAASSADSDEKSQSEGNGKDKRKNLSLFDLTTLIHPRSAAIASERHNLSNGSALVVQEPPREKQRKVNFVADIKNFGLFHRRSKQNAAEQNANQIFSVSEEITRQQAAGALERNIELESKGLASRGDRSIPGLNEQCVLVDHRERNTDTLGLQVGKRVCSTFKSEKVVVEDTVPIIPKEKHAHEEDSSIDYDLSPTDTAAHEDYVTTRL
- ASSAY COMMENT: calcium flux activators in TRPC4/5HT1a cells, counter-screen for TRPC4 activator project, cell-based, second counter screen, HEK293 TRPC4/5HT1a, Fluo-4 (AID 434977)
- APPLIED CONDITIONS: Fluo-4 calcium flux, at 10 µM
The source made the active and inactive calls.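 How the source made its calls: active means calcium signal rise above buffer-control mean plus 5 SD in both duplicates, and also a hit in the primary screen; inactive means the rest.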
Possible outcomes: active, inactive

1) O=C(c1ccccc1F)N1CCN(c2ccc([N+](=O)[O-])c3cccnc23)CC1 | inactive
2) c1coc(CN=C2NC(=NCc3ccco3)c3ccccc32)c1 | inactive
3) CN(C)C(CNC(=O)c1oc2ccccc2c1CSc1ncn[nH]1)c1ccco1 (stereo not given) | inactive
4) O=C(OC1C2CCC1C1CN(CCc3ccccc3)CC12)c1ccccc1 (stereo not given) | inactive
5) CCn1c(=O)n(CCOC)c(=O)c2c3c(sc21)CCCC3 | inactive
6) CCOC(=O)C1(CCOc2ccccc2)CCN(Cc2cccn2-c2ncccn2)CC1 | inactive
7) CN(C)S(=O)(=O)c1cccc(COC(=O)c2ccc(Cl)cc2O)c1 | inactive
8) CC(C)NS(=O)(=O)c1ccc(NC(=O)C(C)Oc2ccc(C(=O)c3ccccc3)cc2)cc1 (stereo not given) | inactive
9) CCn1c(N2CCN(CC(=O)Nc3cccc(C)c3C)CC2)nc2ccccc21 | active
10) CCOC(=O)C1(Cc2cccc(F)c2)CCN(Cc2cnn(CC)c2)CC1 | inactive
11) CCOC(=O)C1(CCOc2ccccc2)CCN(Cc2cccs2)CC1 | inactive
12) Cc1cc(Nc2ccc(C)c(C)c2)c2ccccc2n1 | inactive
13) NS(=O)(=O)c1ccc(CCNCc2ccccc2OCc2ccc(F)cc2)cc1 | inactive
14) CCCn1nc(C(=O)NC2CCCc3ccccc32)c2ccccc2c1=O (stereo not given) | inactive
15) OCCCNc1c2ccccc2nc2ccccc12 | inactive
16) C=CCOc1ccc(Br)cc1CNC(C)(C)CO | inactive
17) c1ccc(Nc2ncnc3sc4c(c23)CCC4)cc1 | inactive
18) CN(C(=O)COC(=O)c1sc2ccccc2c1Cl)C1CCCCC1 | inactive
19) CCOC(=O)C1CCCN(C(=O)CCCn2nnnc2CN2CCOCC2)C1 (stereo not given) | inactive
20) CN(CCc1ccccn1)C(=O)CC1C(=O)NCCN1Cc1cccc(F)c1 (stereo not given) | active
21) c1ccc(CNc2c3ccccc3nc3ccccc23)cc1 | inactive
22) COC(=O)c1ccc(COc2ccc(/C=N/Nc3nc(C)cc(=O)[nH]3)cc2)cc1 | inactive
23) Cc1ccc(-c2nn(-c3cccc(F)c3)cc2CNCc2cccnc2)o1 | inactive
24) Cc1ccc(NC(=O)C2CCC(CNC(=O)[C@@H]3Cc4ccccc4CN3)CC2)cc1 (stereo not given in full) | inactive
25) S=C(NCCc1ccccn1)NC1CCCCC1 | active
26) Cc1csc2c(N3CCN(C(=O)Nc4ccc(Cl)c(Cl)c4)CC3)ncnc12 | active
27) c1ccc(Nc2n[nH]nc2-c2ccccc2)cc1 | inactive
28) CN1CCN(Cc2nc3c(c(=O)[nH]c(=O)n3C)n2Cc2c(F)cccc2Cl)CC1 | active
29) O=C(COC(=O)CSc1ccc([N+](=O)[O-])cc1)NCCCc1ccccc1 | inactive
30) CCCCOc1ccc(Nc2cc(Cl)ccc2C(=O)O)cn1 | inactive
31) c1ccc(Cn2c(NCc3ccco3)nc3ccccc32)cc1 | inactive
32) COc1ccc(Nc2c3c(nc4ccccc24)CCC3)cc1 | inactive
33) Cc1cc(Nc2ccc3c(c2)OCCO3)c2cc(Cl)ccc2n1 | inactive
34) CC1(C)CC(=O)C(C=NCCN2CCN(C(=O)CCl)CC2)=C(O)C1 | inactive
35) O=C(Cc1cccs1)Nc1nc(-c2ccc(F)cc2F)cs1 | inactive

====

- System: TRPC4 beta (transient receptor potential cation channel C4), mouse
- ASSAY COMMENT: potentiation of DAMGO EC20 TRPC4 response – cell-based, Fluo-4, HEK293 TRPC4beta/mu-opioid, confirmation (AID 2555)
- APPLIED CONDITIONS: DAMGO EC20, Fluo-4 calcium flux, at 10 µM; hits give high values
Active and inactive are the calls of the source.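 Rule for the calls: active = primary screen hit whose calcium fluorescence ratio, in both repeats, exceeds the weak agonist control mean by 3 SD; inactive = the rest.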
TEST READOUT: potentiation

1) C1CCN(c2nc(N3CCCC3)nc(N3CCNCC3)n2)C1 | inactive
2) Cc1ccc(NC(=O)CN2CCc3ccccc3C2)cc1S(=O)(=O)N1CCOCC1 | inactive
3) Cc1ccc(NC(=O)c2cc(N3C(=O)C=CC3=O)ccc2N2CCOCC2)cc1Cl | inactive
4) O=c1[nH][nH]c(-c2ccccc2)c1C=Nc1ccc(F)cc1F | 119% (active)
5) O=C1CC2(CCN(S(=O)(=O)c3ccccc3)CC2)Oc2ccccc21 | 52% (active)
6) CN(C)C(CNC(=S)Nc1ccccc1Cl)c1cccnc1 (configuration not stated) | inactive
7) O=S(=O)(c1ccccc1Cl)N1CCC(Cc2ccccc2)CC1 | 16% (active)
8) COc1ccc(/C=N/Nc2nc3ccccc3s2)cc1O | inactive
9) Cc1ccc(-n2c(C)cc(C)c(C#N)c2=O)cc1Cl | inactive
10) Cc1ccc(CNC(=O)CCC2CCCN(Cc3cc4ccccc4o3)C2)o1 (configuration not stated) | inactive
11) COc1cccc(C(=O)Oc2ccc(/C=N/Nc3ccc(C(=O)O)cc3)cc2OC)c1 | inactive
12) COc1ccc(C(CNC(=O)C2CCN(S(=O)(=O)c3ccc(F)cc3)CC2)N(C)C)cc1 (configuration not stated) | inactive
13) Nc1cc(=O)nc(SCC(=O)N2CCN(c3ccccc3)CC2)n1-c1ccc(F)cc1 | inactive
14) CCN(C(=O)c1cc2c(s1)-c1ccccc1OC2)c1cc(OC)ccc1OC | inactive
15) c1ccc(-c2nc(NCc3cccnc3)c3ccccc3n2)cc1 | inactive
16) CCOc1ccc(S(=O)(=O)Nc2cccc(C(=O)NCC(c3ccccc3)N(C)C)c2)cc1 (configuration not stated) | inactive
17) CCOc1ccccc1N(CC(=O)N1CCOCC1)S(=O)(=O)c1ccc(SC)cc1 | inactive
18) CCOc1ccc2ccccc2c1/C=N/NC(=O)c1cc(C)[nH]n1 | inactive
19) CCCC(=O)Nc1c(-c2ccccc2)c(=O)c(C)nn1-c1ccc(Cl)cc1 | inactive
20) CCCCn1c(SCC(=O)N2c3ccccc3Sc3ccccc32)nc2c1c(=O)n(C)c(=O)n2C | 97% (active)
21) COCCn1c(SCc2cc(C(C)=O)ccc2OC)nc2cc(Cl)ccc2c1=O | inactive
22) CC(COc1ccccc1)N1CCC(CO)(Cc2ccccc2)CC1 (configuration not stated) | inactive
23) CN1C2C=C(N(CCc3ccccc3)C(=O)c3ccc(Cl)cc3)CC1CC2 (configuration not stated) | inactive
24) Cc1ccc(S(=O)(=O)Nc2cccc(C(=O)NCC(c3ccco3)N3CCCCC3)c2)cc1F (configuration not stated) | inactive
25) CN(C)CCCN(C(=O)c1ccc(S(=O)(=O)N2CCCC2)cc1)c1nc2c(F)cc(F)cc2s1 | inactive
26) CCn1c(NCc2ccco2)nc2ccccc21 | 8% (active)
27) O=C(CSc1nnc(-c2ccc(Cl)cc2Cl)n1C1CCCCC1)NC1CCS(=O)(=O)C1 (configuration not stated) | inactive
28) COc1ccc(-c2cc(C3CCN(c4cc(Cl)nc(N)n4)CC3)[nH]n2)cc1 | 20% (active)
29) CC(C)NS(=O)(=O)c1ccc(NC(=O)C(C)Oc2ccc(C(=O)c3ccccc3)cc2)cc1 (configuration not stated) | 36% (active)
30) CCCn1nc([N+](=O)[O-])c(C(C#N)c2nc3ccccc3o2)c(Cl)c1=O (configuration not stated) | inactive
31) OC(CNCC1CCCO1)Cn1c2ccc(Br)cc2c2cc(Br)ccc21 (configuration not stated) | inactive
32) CCCCC(CC)c1nnc(NC(=O)c2cccs2)s1 (configuration not stated) | inactive

====

- MEASURED ON: Short transient receptor potential channel 4 (Mus musculus) (UniProt Q9QUQ5)
- ASSAY COMMENT: blockers of DAMGO-evoked TRPC4 calcium flux – cell-based, second round, Fluo4, HEK293 TRPC4beta/mu-opioid, 1 µM, confirmation (AID 2637)
- APPLIED CONDITIONS: at 1 µM
The source made the active and inactive calls.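 The calls were made as follows: active = calcium signal ratio cut to more than 3 SD under the fully stimulated control mean yet still positive, in both repeats and the primary screen; inactive = the rest.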
Possible outcomes: yes (1) (active), no (0) (inactive)

1. COc1cc(CNCCc2ccc(F)cc2)ccc1OCc1ccc(Cl)nc1 | no (0)
2. O=C(COc1ccccc1-c1ccccc1)NCc1ccco1 | no (0)
3. Cn1cc(CN2CCCCC2CO)c(-c2ccc(Oc3ccccc3)cc2)n1 (configuration not stated) | yes (1)
4. CCN(CC)CCCN(C(=O)c1cccs1)c1nc(-c2ccc(OC)cc2)cs1 | no (0)
5. COCCCNc1cc(C)nc2ccccc12 | no (0)
6. Cc1oc(-c2ccccc2Cl)nc1CS(=O)CC(=O)NCCCN1CC(C)CC(C)C1 (configuration not stated) | no (0)
7. CC(=O)n1cc([C@@H]2C=C(C(=O)NCc3ccccc3)O[C@H](OCc3ccc(CO)cc3)C2)c2ccccc21 | no (0)
8. CN(C)CCCN(C(=O)c1ccc(Cl)s1)c1nc2cc3c(cc2s1)OCO3 | no (0)
9. CC1=C(C(=O)NCc2ccccc2)C(c2cc(Br)cc(Br)c2OC(C)C)NC(=O)N1 (configuration not stated) | no (0)
10. CCSC1=N/C(=C\c2ccc(OC)cc2)C(=O)N1 | no (0)
11. Fc1ccc2c(c1)C(c1ccncc1)=NNC(c1ccc(Cl)cc1)=N2 | no (0)
12. Cc1cc(-c2ccc(C)c(S(=O)(=O)N3CCN(c4ccccn4)CC3)c2)on1 | no (0)
13. COc1ccc(F)cc1C(=O)C1CCCN(Cc2ccc3c(c2)OCCO3)C1 (configuration not stated) | no (0)
14. CCCC[n+]1c2ccccc2cc2ccccc21 | yes (1)
15. CCOC(=O)C1(CCOc2ccccc2)CCN(Cc2cccn2-c2ncccn2)CC1 | yes (1)
16. CN1CCN(S(=O)(=O)c2ccc(Br)c3ccccc23)CC1 | no (0)
17. CN(C(=O)CSc1nc(-c2ccc(C(C)(C)C)cc2)c(C#N)c(=O)[nH]1)C1CCCCC1 | no (0)
18. S=C(Nc1ccccc1)Nc1cc(Cl)ccc1Oc1ccccc1 | no (0)
19. c1ccc(CN2CCN(Cc3c[nH]c4ccccc34)CC2)cc1 | no (0)
20. Brc1cc2c(cc1COc1ccc(-c3nn[nH]n3)cc1)OCO2 | no (0)
21. O=c1[nH][nH]c(-c2ccccc2)c1C=Nc1ccc(Cl)cc1 | no (0)
22. Cc1ccc(C)c(NC(=S)NCC(c2ccccc2)N(C)C)c1 (configuration not stated) | no (0)
23. CC1=NN(c2ccccc2)C(=O)/C1=C/c1c(O)n(-c2ccc(F)c(Cl)c2)[nH]c1=O | no (0)
24. Cc1ccccc1NC(=S)NCC(c1cccnc1)N(C)C (configuration not stated) | no (0)
25. O=C(NC1CC1)c1ccc2c(c1)N(Cc1ccc(Cl)cc1)CCS2 | no (0)
26. Cc1ccc(CC(=O)NCC(c2ccco2)N(C)C)cc1C (configuration not stated) | no (0)
27. COc1ccc(-c2cc(C(=O)N3CC(C)CC(C)C3)c3ccccc3n2)cc1 (configuration not stated) | no (0)
